# Test system: HGGX39 (paediatric high-grade glioma line)
# EXPERIMENT_DESCRIPTION: growth inhibition (% activity, log2 RLU normalised to DMSO / staurosporine); higher = more growth inhibition
# ASSAY_CONTEXT: 33 µM
ATTRIBUTE_MEASURED: growth inhibition
Give the figure together with its unit, number first.

Input: Look up growth inhibition for this compound: `CCN(CC)CCOC(=O)C1(C2CCCCC2)CCCCC1`
Output: -2.47%

Input: Look up growth inhibition for this compound: `CC[N+](CC)(CC)CCOc1cccc(OCC[N+](CC)(CC)CC)c1OCC[N+](CC)(CC)CC`
Output: 2.47%

Input: Look up growth inhibition for this compound: `NCCS(=O)(=O)O`
Output: 0.579%

Input: Look up growth inhibition for this compound: CC(C)NCC(O)c1ccc(O)c(O)c1 (stereo unspecified)
Output: -1.58%

Input: Look up growth inhibition for this compound: `CCOC(=O)C1=C(C)NC(C)=C(C(=O)OCC)C1c1ccccc1/C=C/C(=O)OC(C)(C)C`
Output: 24.1%

Input: Look up growth inhibition for this compound: `O=c1c(-c2ccc(O)cc2)coc2cc(O)cc(O)c12`
Output: 4.09%
